# Target Or System: Aromatase (Homo sapiens)
# Sequence (P11511 whole entry): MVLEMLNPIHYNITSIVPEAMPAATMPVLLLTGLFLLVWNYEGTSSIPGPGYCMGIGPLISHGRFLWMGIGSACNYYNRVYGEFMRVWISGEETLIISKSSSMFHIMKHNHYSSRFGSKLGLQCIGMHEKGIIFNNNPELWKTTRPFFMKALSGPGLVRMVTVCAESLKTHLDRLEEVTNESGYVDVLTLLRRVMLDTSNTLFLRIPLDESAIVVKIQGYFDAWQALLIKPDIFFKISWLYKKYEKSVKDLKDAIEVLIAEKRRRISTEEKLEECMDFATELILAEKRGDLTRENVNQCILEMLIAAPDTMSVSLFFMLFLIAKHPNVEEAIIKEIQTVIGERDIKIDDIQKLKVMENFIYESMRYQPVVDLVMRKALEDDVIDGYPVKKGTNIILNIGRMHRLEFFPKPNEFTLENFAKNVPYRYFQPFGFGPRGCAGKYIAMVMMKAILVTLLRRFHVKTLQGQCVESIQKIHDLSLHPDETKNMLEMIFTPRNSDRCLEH
IC50 values, listed per item
Recorded Metric: IC50 (µM)

1. COc1ccc(CCCc2ccc(O)cc2)c(O)c1 [BROUSSONIN A]
30
2. CC(C)=CCc1cc(-c2oc3cc(O)cc(O)c3c(=O)c2O)ccc1O [ISOLICOFLAVONOL]
0.1
3. CC(C)=CCc1cc(-c2oc3c(CC=C(C)C)c(O)cc(O)c3c(=O)c2O)ccc1O [BROUSSOFLAVONOL F]
9.7

----------
The next entries give measured pIC50 for Aromatase (Homo sapiens, UniProt P11511).
pIC50: −log10 of the molar value.
Recorded Metric: pIC50

1) COc1ccc(CCCc2ccc(OC)c(O)c2)c(O)c1 [BROUSSONIN E]
< 3.86
2) CC(C)=CCc1cc(C(=O)/C=C/c2ccc(O)cc2)c(O)cc1O [BROUSSOCHALCONE B]
< 3.91
3) CC(C)=CCc1cc2c(cc1O)O[C@H](c1ccc(O)cc1)CC2=O [BAVACHIN]
< 3.91

----------
# Target Or System: Aromatase (Homo sapiens)
IC50 values, listed per item
Recorded Metric: IC50

1) O=C1c2c(O)cc(O)cc2O[C@H](c2ccc(O)cc2O)[C@H]1O [DIHYDROMORIN]
> 131 µM
2) Oc1ccc(CCCc2ccc(O)cc2O)cc1
> 164 µM
3) Oc1cc(O)cc(-c2cc3ccc(O)cc3o2)c1 [MORACIN M]
> 165 µM
4) CC1(C)C=Cc2c(O)cc(-c3cc4ccc(O)cc4o3)cc2O1 [MORACIN D]
> 130 µM
5) CC(C)=CCc1c(O)cc(O)cc1-c1cc2ccc(O)cc2o1 [DEMETHYLMORACIN I]
31.1 µM
6) COc1cc(O)ccc1CCCc1ccc(O)cc1 [BROUSSONIN B]
> 155 µM
7) CC(C)=CCc1c(O)ccc(C(=O)/C=C/c2ccc(O)cc2)c1O [ISOBAVACHALCONE]
> 123 µM
8) COc1c(-c2ccc(O)c(O)c2)oc2cc(O)c(C/C=C(\C)CCC=C(C)C)c(O)c2c1=O
> 88.4 µM
9) COc1cc(O)ccc1CCCc1ccc(O)c(CC=C(C)C)c1
> 123 µM
10) CC(C)=CCc1c(O)ccc(CCCc2ccc(O)cc2)c1O
> 128 µM
